Assign Kd to each entry below.
system.name: FGFR3 (Homo sapiens (Human))
Sequence (P22607 23-806): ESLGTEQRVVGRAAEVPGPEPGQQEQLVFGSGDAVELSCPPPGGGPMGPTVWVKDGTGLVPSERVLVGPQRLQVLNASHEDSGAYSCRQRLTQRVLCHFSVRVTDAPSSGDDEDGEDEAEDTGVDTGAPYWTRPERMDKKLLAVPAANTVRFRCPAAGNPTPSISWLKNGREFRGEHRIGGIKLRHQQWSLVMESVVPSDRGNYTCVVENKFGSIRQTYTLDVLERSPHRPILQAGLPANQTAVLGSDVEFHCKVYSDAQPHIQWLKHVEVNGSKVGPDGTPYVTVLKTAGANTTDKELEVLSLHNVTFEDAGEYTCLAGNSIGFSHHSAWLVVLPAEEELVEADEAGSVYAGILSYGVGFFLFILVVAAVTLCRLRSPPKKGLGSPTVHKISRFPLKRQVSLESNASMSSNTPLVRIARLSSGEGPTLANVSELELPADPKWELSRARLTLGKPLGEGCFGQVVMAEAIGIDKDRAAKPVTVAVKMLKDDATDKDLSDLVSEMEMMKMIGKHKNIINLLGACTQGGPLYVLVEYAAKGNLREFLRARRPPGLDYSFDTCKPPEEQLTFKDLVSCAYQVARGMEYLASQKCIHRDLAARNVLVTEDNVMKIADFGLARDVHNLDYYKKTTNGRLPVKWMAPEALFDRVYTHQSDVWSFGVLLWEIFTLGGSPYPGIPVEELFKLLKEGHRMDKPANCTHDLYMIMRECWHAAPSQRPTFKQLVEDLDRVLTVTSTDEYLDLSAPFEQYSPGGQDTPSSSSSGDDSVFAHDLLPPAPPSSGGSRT
assay.info: Kinase assay, binding constants (Kd), kinase-tagged T7 phage, qPCR

Look over these answered cases.
C[C@@H](Oc1ccc2[nH]nc(-c3ccc(N4CC5(C4)CN(S(C)(=O)=O)C5)nc3)c2c1)c1c(Cl)cnnc1Cl [Example 233] :: 20 to 100 nM
C[C@@H](Oc1ccc2[nH]nc(-c3cnc(N4CC[C@H](O)C4)c(C#N)c3)c2c1)c1c(Cl)cnc(F)c1Cl [Example 288] :: 20 to 100 nM
Cc1cnnc(C)c1[C@@H](C)Oc1ccc2[nH]nc(-c3cnc(N4CCC[C@@H]4CO)c(C#N)c3)c2c1 [Example 335] :: 1 to 20 nM
C[C@@H](Oc1ccc2[nH]nc(-c3ccc(N4CC5(CCN5C)C4)nc3)c2c1)c1c(Cl)cncc1Cl [Example 96] :: 1 to 20 nM
Cc1ncc(Cl)c([C@@H](C)Oc2ccc3[nH]nc(-c4ccc(N5CC6(CCC6)C5)nc4)c3c2)c1Cl [Example 212] :: 20 to 100 nM

For every item below, please supply its Kd.
1. C[C@@H](Oc1ccc2[nH]nc(-c3ccc(N4CCC5(CCC(=O)N5C)CC4)nc3)c2c1)c1c(Cl)cncc1Cl [Example 40]
2. C[C@@H](Oc1ccc2[nH]nc(-c3cnn(C4CCN(C)CC4)c3)c2c1)c1c(Cl)cncc1Cl [Example 65]
3. COc1cc2[nH]nc(-c3cnc(N4CC[C@H]4C)c(S(C)(=O)=O)c3)c2cc1O[C@H](C)c1c(Cl)cncc1Cl [Example 372]
4. COc1cc2[nH]nc(-c3cnc(N4CCC4)c(C#N)c3)c2cc1O[C@H](C)c1c(Cl)cnnc1Cl [Example 360]
5. Cc1cc(-c2n[nH]c3ccc(O[C@H](C)c4c(Cl)cnc(C)c4Cl)cc23)cnc1N1CC(CO)(CO)C1 [Example 234]
6. C[C@@H](Oc1ccc2[nH]nc(-c3ccc(N4CCC[C@@H]4CO)nc3)c2c1)c1c(Cl)cncc1Cl [Example 236]
7. Cc1ncc(Cl)c([C@@H](C)Oc2ccc3[nH]nc(-c4cnn(C5CCN(C6CCC6)CC5)c4)c3c2)c1Cl [Example 95]
8. C[C@@H](Oc1ccc2[nH]nc(-c3cnc(N4CC[C@@H](O)C4)c(C#N)c3)c2c1)c1c(Cl)cncc1Cl [Example 297]

["1 to 20 nM", "1 to 20 nM", "20 to 100 nM", "20 to 100 nM", "1 to 20 nM", "1 to 20 nM", "1 to 20 nM", "1 to 20 nM"]

Data request, read-out Kd, for C[C@@H](Oc1ccc2[nH]nc(-c3cnc(N4CCN(S(C)(=O)=O)CC4)nc3)c2c1)c1c(Cl)cncc1Cl [Example 14]
1 to 20 nM
